system_name: human GPR119 (Homo sapiens, UniProt Q8TDV5)
Construct: expressed in transfected cells; host or cells: Flp-in T-Rex-293 cells (Invitrogen #R78007), plasmid pcDNA5/FRT/TO, expression induced with tetracycline
Sequence (Q8TDV5 1-335): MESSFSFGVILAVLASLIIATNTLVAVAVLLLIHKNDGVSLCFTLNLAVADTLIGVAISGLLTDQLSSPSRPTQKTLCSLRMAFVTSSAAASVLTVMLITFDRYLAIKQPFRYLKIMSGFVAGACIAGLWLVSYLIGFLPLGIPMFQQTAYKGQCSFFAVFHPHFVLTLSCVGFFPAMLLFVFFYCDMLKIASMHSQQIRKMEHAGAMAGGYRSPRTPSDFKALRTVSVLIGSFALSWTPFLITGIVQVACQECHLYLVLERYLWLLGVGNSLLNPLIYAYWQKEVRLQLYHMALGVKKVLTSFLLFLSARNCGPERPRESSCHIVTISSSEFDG
procedure_summary: Measurement of intracellular cAMP in stable cell line expressing human GPR119 (GPR119 agonist effect)
Type: cell-based
particulars: increase of intracellular cAMP, Flp-in T-Rex-293 cells expressing human GPR119, 37° C. for 30 minutes
Listing of entries alongside the reported EC50.
result_type: EC50 (nM)

- compound: "CC(C)(C)OC(=O)N1CCC(c2ccc(CN3CCc4cc(S(C)(=O)=O)ccc43)nc2)CC1"
  result_type: "EC50"
  value_observed: 20.5
- compound: "CC1CN(C(=O)OC(C)(C)C)CC=C1c1ccc(Cn2ccc3cc(S(C)(=O)=O)ccc32)nc1 (stereo not shown)"
  result_type: "EC50"
  value_observed: 58.7
- compound: "CC(C)(C)OC(=O)N1CCC(c2ccc(Cn3ccc4cc(-n5cnnn5)ccc43)nc2)CC1"
  result_type: "EC50"
  value_observed: 18.5
- compound: "COC(=O)c1ccc2c(ccn2Cc2ncc(C3CCN(C(=O)OC(C)(C)C)CC3)cc2F)c1"
  result_type: "EC50"
  value_observed: 191

* * *

Each entry below carries its recorded pEC50.
system_name: human GPR119 (Homo sapiens)
Sequence (Q8TDV5 1-335): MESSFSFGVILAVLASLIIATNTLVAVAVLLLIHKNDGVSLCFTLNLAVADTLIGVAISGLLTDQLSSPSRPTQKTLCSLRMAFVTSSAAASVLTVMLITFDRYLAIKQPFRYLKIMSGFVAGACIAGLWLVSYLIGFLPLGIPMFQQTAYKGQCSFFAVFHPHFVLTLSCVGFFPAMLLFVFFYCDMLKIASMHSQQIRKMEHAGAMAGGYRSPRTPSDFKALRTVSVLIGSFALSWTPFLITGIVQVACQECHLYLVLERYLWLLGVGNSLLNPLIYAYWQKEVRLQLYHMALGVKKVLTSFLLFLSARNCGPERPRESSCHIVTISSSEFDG
procedure_summary: Measurement of intracellular cAMP in stable cell line expressing human GPR119 (GPR119 agonist effect)
particulars: increase of intracellular cAMP, Flp-in T-Rex-293 cells expressing human GPR119, 37° C. for 30 minutes
pEC50: −log10 of the molar value.
result_type: pEC50

- compound: "CC(C)(C)OC(=O)N1CCC(c2cnc(Cn3ccc4cc(S(C)(=O)=O)ccc43)c(Cl)c2)CC1 [Example 14]"
  value_observed: 8.02
- compound: "CC(C)(C)OC(=O)N1CCC(c2ccc(Cn3ccc4cc(-n5cncn5)ccc43)nc2)CC1 [Example 56]"
  value_observed: 7.58
- compound: "CC(C)(C)OC(=O)N1CCC(c2ccc(Cn3ccc4cc(S(C)(=O)=O)c(F)cc43)nc2)CC1 [Example 24]"
  value_observed: 7.72
- compound: "CCc1cnc(N2CCC(c3ccc(Cn4ccc5cc(S(C)(=O)=O)cc(F)c54)nc3)CC2)nc1 [Example 34]"
  value_observed: 7.52
- compound: "Cc1cc(S(C)(=O)=O)cc2ccn(Cc3ccc(C4CCN(C(=O)OC(C)(C)C)CC4)cn3)c12 [Example 26]"
  value_observed: 7.23
- compound: "CC(C)(C)OC(=O)N1CCC(c2ccc(Cn3ncc4cc(S(C)(=O)=O)ccc43)nc2)CC1 [Example 21]"
  value_observed: 6.37
- compound: "CC(C)OC(=O)N1CCC(c2cnc(Cn3ccc4cc(-n5cnnn5)cc(F)c43)c(F)c2)CC1 [Example 83]"
  value_observed: 7.98
- compound: "CC1CN(C(=O)OC(C)(C)C)CCC1c1ccc(Cn2ccc3cc(S(C)(=O)=O)ccc32)nc1 (centres unmarked) [Example 44]"
  value_observed: 7.87
- compound: "CC(C)c1nc(N2CCC(c3ccc(Cn4ccc5cc(S(C)(=O)=O)ccc54)nc3)CC2)no1 [Example 16]"
  value_observed: 7.31
- compound: "CC(C)(C)OC(=O)N1CCC(c2ccc(Cn3ccc4cc(S(C)(=O)=O)cc([N+](=O)[O-])c43)nc2)CC1 [Example 18]"
  value_observed: 7.59
- compound: "CC(C)(C)OC(=O)N1CCC(c2ccc(Cn3cc4cc(S(C)(=O)=O)ccc4n3)nc2)CC1 [Example 22]"
  value_observed: 6.34
- compound: "CCc1cnc(N2CCC(c3ccc(Cn4ccc5cc(-n6cnnn6)ccc54)nc3)CC2)nc1 [Example 33]"
  value_observed: 7.81
- compound: "CC(C)(C)OC(=O)N1CCC(c2ccc(Cn3ccc4cc(S(C)(=O)=O)ccc43)nc2)CC1 [Example 1]"
  value_observed: 7.67
- compound: "CCc1cnc(N2CCC(c3ccc(Cn4ccc5cc(S(C)(=O)=O)c(F)cc54)nc3)CC2)nc1 [Example 32]"
  value_observed: 7.28
- compound: "CC(C)(C)OC(=O)N1CCC(c2ccc(Cn3ccc4cc(S(C)(=O)=O)cc(C(F)(F)F)c43)nc2)CC1 [Example 49]"
  value_observed: 6.53
- compound: "CC(C)(C)OC(=O)N1CCC(c2ccc(Cn3ccc4c(F)c(S(C)(=O)=O)c(F)cc43)nc2)CC1 [Example 57]"
  value_observed: 7.76
- compound: "CC(C)(C)OC(=O)N1CCC(c2ccc(-c3cc4cc(S(C)(=O)=O)ccc4o3)nc2)CC1 [Example 9]"
  value_observed: 6.38

* * *

system_name: human GPR119 (Homo sapiens, UniProt Q8TDV5)
procedure_summary: Measurement of intracellular cAMP in stable cell line expressing human GPR119 (GPR119 agonist effect)
particulars: increase of intracellular cAMP, Flp-in T-Rex-293 cells expressing human GPR119, 37° C. for 30 minutes
Text: The GPR119 agonist effect is studied by measuring the effect of an analyte on increase of intracellular amount of cAMP in human GPR119 introduced cells. The testing method is described below. Human GPR119 gene (NM 178471) is purchased from ATCC (ATCC No. 10807349), and is amplyfied according to PCR to form BamHI site at 5′ side and Apa I site at 3′ side. The primers are […] (sequence No. 1) and […] (sequence No. 2). The PCR conditions are described below. […]
pEC50: −log10 of the molar value.
class 1 means recorded pEC50 is 7 or above; class 0 means it is below 7.

- compound: "C[C@H]1CC(c2ccc(Cn3ccc4cc(S(C)(=O)=O)ccc43)nc2)C[C@H](C)N1C(=O)OC(C)(C)C (stereo partly drawn) [Example 69]"
  category_label: "class 1"
- compound: "CC(C)(C)OC(=O)N1CCC(c2ccc(COc3ccc4c(c3)C=CS4(=O)=O)nc2)CC1 [Example 10]"
  category_label: "class 0"
- compound: "CC(C)OC(=O)N1CCC(c2ccc(Cn3ccc4cc(-n5cnnn5)cc(F)c43)nc2)CC1 [Example 54]"
  category_label: "class 1"
- compound: "CC(C)(C)OC(=O)N1CCC(c2ccc(Cn3ccc4cc(S(C)(=O)=O)cc(Cl)c43)nc2)CC1 [Example 27]"
  category_label: "class 1"
- compound: "CC(C)(C)OC(=O)N1CCC(c2ccc(Cn3ccc4cc(S(C)(=O)=O)c(Cl)cc43)nc2)CC1 [Example 31]"
  category_label: "class 1"
- compound: "CC(C)(C)OC(=O)N1CCC(c2ccc(CN3CCc4cc(S(C)(=O)=O)cc(F)c43)nc2)CC1 [Example 25]"
  category_label: "class 1"
- compound: "CC(C)(C)OC(=O)N1CCC(F)(c2ccc(Cn3ccc4cc(S(C)(=O)=O)ccc43)nc2)CC1 [Example 76]"
  category_label: "class 1"
- compound: "CC(C)(C)OC(=O)N1CCC(c2ccc(Cn3ccc4c(F)c(S(C)(=O)=O)cc(F)c43)nc2)CC1 [Example 42]"
  category_label: "class 1"
- compound: "CC(C)OC(=O)N1CC=C(c2ccc(Cn3ccc4cc(-n5cnnn5)cc(F)c43)nc2)C(C)C1 (stereo not drawn) [Example 67]"
  category_label: "class 1"
- compound: "Cc1cc(C2CCN(C(=O)OC(C)(C)C)CC2)cnc1Cn1ccc2cc(S(C)(=O)=O)ccc21 [Example 5]"
  category_label: "class 1"
- compound: "CCC1CN(C(=O)OC(C)(C)C)CC=C1c1ccc(Cn2ccc3cc(S(C)(=O)=O)ccc32)nc1 (stereo not drawn) [Example 73]"
  category_label: "class 1"
- compound: "Cc1cc(C2CCN(C(=O)OC(C)(C)C)CC2)cnc1Cn1ccc2cc(-n3cncn3)ccc21 [Example 58]"
  category_label: "class 1"
- compound: "CC(C)(C)OC(=O)N1CCC(c2ccc(Cn3ccc4cc(S(C)(=O)=O)ccc43)nc2)C1 (stereo not drawn) [Example 50]"
  category_label: "class 0"
- compound: "CC(C)(C)OC(=O)N1CCC(c2ccc(Cn3ccc4cc(S(C)(=O)=O)cnc43)nc2)CC1 [Example 17]"
  category_label: "class 1"
- compound: "CCc1cnc(N2CCC(c3ccc(Cn4ccc5cc(S(C)(=O)=O)ccc54)nc3)CC2)nc1 [Example 30]"
  category_label: "class 1"
- compound: "CC(C)(C)OC(=O)N1CCC(c2ccc(Cn3ccc4cc(S(C)(=O)=O)ncc43)nc2)CC1 [Example 29]"
  category_label: "class 1"
- compound: "CC(C)(C)OC(=O)N1CCC(c2ccc(Cn3ccc4cc(-n5cnnn5)cc(F)c43)nc2)CC1 [Example 41]"
  category_label: "class 1"
- compound: "CC(C)(C)OC(=O)N1CCC(c2ccc(Cn3ccc4cc(S(C)(=O)=O)cc(N)c43)nc2)CC1 [Example 19]"
  category_label: "class 0"
- compound: "CC(C)(C)OC(=O)N1CCC(c2ccc(Cn3ccc4cc(S(C)(=O)=O)cc(F)c43)nc2)CC1 [Example 11]"
  category_label: "class 1"
- compound: "CC(C)(C)OC(=O)N1CCC(c2ccc(Cn3ccc4cc(S(C)(=O)=O)c(F)c(F)c43)nc2)CC1 [Example 55]"
  category_label: "class 1"
- compound: "CC(C)(C)OC(=O)N1CCC(c2cnc(Cn3ccc4cc(S(C)(=O)=O)ccc43)c(F)c2)CC1 [Example 13]"
  category_label: "class 1"
- compound: "CC(C)(C)OC(=O)N1CCC(c2ccc(Cn3ccc4c(F)c(S(C)(=O)=O)ccc43)nc2)CC1 [Example 23]"
  category_label: "class 1"
- compound: "CC(C)(C)OC(=O)N1CCC(c2ccc(CN3CCc4cc(-n5cnnn5)cc(F)c43)nc2)CC1 [Example 38]"
  category_label: "class 1"
- compound: "CC(C)(C)OC(=O)N1CC=C(c2ccc(Cn3ccc4cc(S(C)(=O)=O)ccc43)nc2)C(C)(C)C1 [Example 45]"
  category_label: "class 0"
